Biological target: KRAS(G12D)/SOS1 (Homo sapiens, UniProt P01116, G12D)
Construct: purchased Cisbio 63ADK000CB17PEH
Sequence (P01116 1-188 isoform P01116-2 G12D): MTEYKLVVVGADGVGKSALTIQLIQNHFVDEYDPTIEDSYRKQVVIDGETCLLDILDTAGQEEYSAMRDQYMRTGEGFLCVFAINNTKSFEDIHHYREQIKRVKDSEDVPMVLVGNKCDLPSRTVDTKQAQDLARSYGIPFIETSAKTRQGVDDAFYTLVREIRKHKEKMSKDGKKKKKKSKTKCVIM
Experiment: KRAS(G12D)/SOS1 homogeneous time-resolved fluorescence (HTRF) assay
Assay type: binding
Settings: absence of GTP; 4° C., 3 hr
The following compounds are shown together with reported IC50 values.

Example compounds with recorded IC50:
[[record]]
compound = "C#Cc1cccc2cc(O)cc(-c3ncc4c(N5CC6CCC(C5)N6)nc(OCC5(CN6CC[C@H](C(=O)N7CCN(Cc8ccc9c(c8)CN(C(=O)c8cc(C(C)C)c(O)cc8O)C9)CC7)C6)CC5)nc4c3F)c12"
reportedvalue = "< 100 nM"

[[record]]
compound = "Cc1cccc2cccc(-c3ncc4c(N5CC6CCC(C5)N6)nc(OC[C@@H]5CC[C@H](CN6CCN(Cc7ccc(-n8c(C(=O)NC(C)C(F)(F)F)nnc8-c8cc(C(C)C)c(O)cc8O)cc7)CC6)N5C)nc4c3F)c12 (stereo partly drawn)"
reportedvalue = "100 to 1000 nM"


Item under review: `C#Cc1c(F)ccc2cc(O)cc(-c3nc(OC)c4c(N5CC6CCC(C5)N6)nc(OCC5(CN6CCN(C7CCN(Cc8ccc9c(c8)CN(C(=O)c8cc(O)c(C(C)C)cc8O)C9)CC7)CC6)CC5)nc4c3F)c12` . Reported IC50?
< 100 nM

Item under review: `C#Cc1cccc2cc(O)cc(-c3ncc4c(N5CC6CCC(C5)N6)nc(OC[C@@H]5C[C@H](N6CCN(Cc7ccc(-n8c(C(=O)NCC(F)(F)F)nnc8-c8cc(CC)c(O)cc8O)cc7)CC6)CN5C)nc4c3F)c12` . Reported IC50?
< 100 nM

Item under review: `CC(C)c1cc(-c2nnc(O)n2-c2ccc(CN3CCC(C(=O)C4CCN([C@H]5C[C@@H](COc6nc(N7CC8CCC(C7)N8)c7cnc(-c8cc(O)cc9ccccc89)c(F)c7n6)N(C)C5)CC4)CC3)cc2)c(O)cc1O` . Reported IC50?
< 100 nM
